Test system: Rattus norvegicus
experimentalProtocol: Compound was tested in vivo for adjuvant arthritis in rat
Type: functional
Labelling: ED50 reported below 0.2 mg/kg becomes True; at or above becomes False.

// known answers, use as guide
chemSmiles | targetUnderTest | category
Cc1cc(=O)c(-c2ccc(Cl)c(Cl)c2)c(-c2ccc(S(C)(=O)=O)cc2)o1 | Rattus norvegicus | False
Cc1cc(=O)c(Oc2ccc(F)cc2F)c(-c2ccc(S(C)(=O)=O)cc2)o1 | Rattus norvegicus | True
Cc1cc(=O)c(-c2ccc(Cl)cc2)c(-c2ccc(S(C)(=O)=O)cc2)o1 | Rattus norvegicus | False

*Q* Say whether its ED50 is strictly beneath 0.2 mg/kg. Entry: `Cc1cc(=O)c(Oc2ccc(F)cc2)c(-c2ccc(S(C)(=O)=O)cc2)o1`
*A* False

*Q* For `Cc1cc(=O)c(Oc2ccc(Br)cc2F)c(-c2ccc(S(C)(=O)=O)cc2)o1` then?
*A* True

*Q* For `Cc1cc(=O)c(-c2ccc(Br)cc2)c(-c2ccc(S(C)(=O)=O)cc2)o1` then?
*A* False

*Q* For `Cc1cc(=O)c(Oc2ccc(Cl)cc2)c(-c2ccc(S(C)(=O)=O)cc2)o1` then?
*A* False

*Q* For `Cc1cc(=O)c(Oc2ccc(Cl)cc2F)c(-c2ccc(S(C)(=O)=O)cc2)o1` then?
*A* True
